experiment: Binding affinity to 5'-Biotinylated pre-let-7f-2-loop-mt RNA (unknown origin) by SPR analysis
readout_label: Kd
Answer with the number, then the unit.

Looking up CC(C)NC(=O)c1ccncc1NC(=O)Nc1nn(C)c2nc(Cl)ncc12 , I found its Kd recorded as 17.8 µM
